Measured z-score accompanies every entry in the list below.
# assay: basal 3T3-L1 adipocyte mitochondrial potential changes, profiling panel, cell-based, JC-1 fluorescence, 3T3-L1 adipocytes, 24 h, 100 nL compound (AID 1168)
# conditions: JC-1 mitochondrial fluorescence, higher = more signal, called active from +8 up or from −8 down
Active and inactive are the calls of the source.
recorded endpoint: z-score

[[record]]
molecule = "COCCOC(=O)N1C(=O)[C@@]2(c3cc(C#Cc4ccc(OC)cc4)ccc31)[C@H](c1ccc(O)cc1)N1[C@H](c3ccccc3)[C@H](c3ccccc3)OC(=O)[C@H]1[C@@H]2C(=O)N1CCCCCCC1"
observed_result = "1.18 (inactive)"

[[record]]
molecule = "CC(=O)c1ccc(C(O)C2C=CC3C(=O)N(c4ccccc4)C(=O)C3N2Nc2ccc(C#N)cc2)cc1 (configuration not stated)"
observed_result = "-1.06 (inactive)"

[[record]]
molecule = "CCCC[C@@H]1C[C@H]1[C@@H](NC(=O)c1cccs1)c1ccc(C(F)(F)F)cc1"
observed_result = "-1.23 (inactive)"

[[record]]
molecule = "CC(C)Cc1ccc(CN2CC[C@@H](NC(=O)Nc3ccccc3)C2)cc1"
observed_result = "0.465 (inactive)"

[[record]]
molecule = "COc1ccc([Si](C)(C)[C@@H]2[C@@H](CC(=O)N(CCO)Cc3ccccc3)O[C@]3(C(=O)N(Cc4cccc(N5CCOC5=O)c4)c4ccccc43)[C@H]2C)cc1"
observed_result = "0.0933 (inactive)"

[[record]]
molecule = "COc1cc2c(cc1O)C(C)N(Cc1ccc([N+](=O)[O-])o1)CC2 (configuration not stated)"
observed_result = "-0.741 (inactive)"

[[record]]
molecule = "CN(C)CCCNC(=O)[C@@]1(c2ccc([N+](=O)[O-])cc2)CC(=O)N(CC23CC4CC(CC(C4)C2)C3)[C@@H]1c1ccc(CO)cc1I"
observed_result = "1.94 (inactive)"


###

# assay: PSAC antagonists in infected red cells, primary screen, cell-based, P. falciparum Indochina, OD700, 2 h (AID 1155);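 also: lysis reports solute entry through the parasite surface anion channel PSAC; channel blockers reduce lysis of infected cells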
# conditions: P. falciparum Indochina infected erythrocytes, osmotic lysis OD700, called active from +8 up or from −8 down
Activity calls are given as the source filed them.
Classes used: label 1 (active), label 0 (inactive)

[[record]]
compound = "COc1ccc(CCN2C(=O)[C@@]3(Cc4ccccc42)c2ccccc2C(=O)N(Cc2ccccc2OC)[C@H]3c2ccc(CO)cc2)cc1"
cat = "label 0"

[[record]]
compound = "COc1cc2c(cc1OC)CN(C(=O)[C@@H]1[C@H]3C(=O)O[C@H](c4ccccc4)[C@H](c4ccccc4)N3[C@H](c3ccc(OCCO)cc3)[C@@]13C(=O)Nc1ccc(C#CC4(O)CCCCCC4)cc13)CC2"
cat = "label 0"

[[record]]
compound = "CC(C)(C)N1CC=CC23O[C@@H]4C=CCOC(=O)[C@@H]4[C@H]2C(=O)N(CCCCCCO)[C@@H]3C1=O (stereo partly drawn)"
cat = "label 0"

[[record]]
compound = "CN1C(=O)C2C=CC(C(O)c3cccc(O)c3)N(Nc3ccccc3)C2C1=O (stereo not drawn)"
cat = "label 0"

[[record]]
compound = "CCCCCCCCCCC(O)C1C=CC2C(=O)N(C)C(=O)C2N1NC(=O)OC(C)(C)C (stereo not drawn)"
cat = "label 0"

[[record]]
compound = "C=CCOC(=O)[C@H]1[C@@H]2C(=O)O[C@@H](c3ccccc3)[C@@H](c3ccccc3)N2[C@@H](c2ccc(OCCOC(=O)[C@H]3C[C@H]4C(=O)N[C@@H](CC(C)C)C(=O)N4[C@H]3c3cccc(OCCO)c3)cc2)[C@]12C(=O)Nc1ccc(I)cc12"
cat = "label 0"

[[record]]
compound = "O=C(N1CCCCC1)[C@@]1(CCS(=O)(=O)c2ccccc2)COC(c2ccc(OCCCO)cc2)=N1"
cat = "label 1"

[[record]]
compound = "CCCNC(=O)[C@@H]1c2ccccc2C(=O)N(C(C)C)[C@H]1c1ccc(CO)cc1"
cat = "label 0"

[[record]]
compound = "Cc1cc(C)c(C(O)C2C=CC3C(=O)NC(=O)C3N2Nc2ccc(Cl)cc2Cl)c(C)c1 (stereo not drawn)"
cat = "label 0"

[[record]]
compound = "O=C1C2C=CC(C(O)c3ccccc3)N(Nc3ccccc3F)C2C(=O)N1c1ccccc1 (stereo not drawn)"
cat = "label 0"

[[record]]
compound = "CCC[C@@H]1C[C@@]1(CCC)[C@@H](NC(=O)OCc1ccccc1)c1ccc(-c2ccccc2)cc1"
cat = "label 0"

[[record]]
compound = "N#Cc1ccc(C(O)C2C=CC3C(=O)N(c4ccccc4)C(=O)C3N2Nc2ccccc2)cc1 (stereo not drawn)"
cat = "label 0"

[[record]]
compound = "CC(C)N1C(=O)C[C@@](C(=O)NCCCN(C)C)(c2ccc([N+](=O)[O-])cc2)[C@H]1c1ccc(CO)cc1"
cat = "label 0"

[[record]]
compound = "Cc1ccc(S[C@]2(C(=O)O)CC(=O)N(Cc3ccccc3Cl)[C@@H]2c2ccc(CO)cc2I)cc1"
cat = "label 0"

[[record]]
compound = "CN(C)CCCCNC(=O)[C@@H]1C[C@@H]2C(=O)N[C@@H](Cc3ccccc3)C(=O)N2[C@@H]1c1cccc(OCCO)c1"
cat = "label 0"

[[record]]
compound = "COc1ccc(C(O)C2C=CC3C(=O)N(c4ccccc4)C(=O)C3N2Nc2ccc([N+](=O)[O-])cc2)cc1 (stereo not drawn)"
cat = "label 0"

[[record]]
compound = "COC(=O)[C@@]1(Cc2ccccc2)[C@H]2c3cc(C(=O)N(C)C)n(CCc4ccc(O)c(OC)c4)c3C[C@H]2CN1C(=O)c1ccccc1"
cat = "label 0"

[[record]]
compound = "O=C1c2ccccc2[C@](Cc2ccccc2I)(C(=O)NCC(F)(F)F)[C@H](c2ccc(CO)cc2)N1C1CCCCC1"
cat = "label 0"

[[record]]
compound = "CC(C)OC(=O)C=C1C[C@@H](c2ccc(C(F)(F)F)cc2)O[C@@H](c2ccc(C(F)(F)F)cc2)O1"
cat = "label 0"

[[record]]
compound = "COCCOC(=O)N1C(=O)[C@@]2(c3cc(C#CCCO)ccc31)[C@H](C(=O)Nc1nc3ccccc3s1)[C@H]1C(=O)O[C@H](c3ccccc3)[C@H](c3ccccc3)N1[C@@H]2c1ccccc1OCCO"
cat = "label 0"

[[record]]
compound = "C=CCC(OC(C)=O)[C@@H]1[C@@H](N(Cc2cccc3ccccc23)C(=O)c2cccc3ccccc23)c2cc(OCCCO)ccc2N1C(=O)c1ccc(-c2ccccc2)cc1 (stereo partly drawn)"
cat = "label 0"

[[record]]
compound = "CC(C)N1C(=O)c2ccccc2[C@@H](C(=O)NC2CC2)[C@@H]1c1ccc(CO)cc1"
cat = "label 0"

[[record]]
compound = "COC(=O)[C@@]1(Cc2ccc(OC)cc2)[C@H]2c3cc(C(=O)N(C)C)n(C[C@H](O)CO)c3C[C@H]2CN1C(=O)c1ccccc1"
cat = "label 0"

[[record]]
compound = "COCCOC(=O)N1C(=O)[C@@]2(c3cc(C#CC4=CCCCC4)ccc31)[C@H](c1ccc(O)cc1)N1[C@H](c3ccccc3)[C@H](c3ccccc3)OC(=O)[C@H]1[C@@H]2C(=O)N1CCN(c2ncccn2)CC1"
cat = "label 0"

[[record]]
compound = "CN(C)CCCNC(=O)[C@@]1(C)c2ccccc2C(=O)N(Cc2ccccc2)[C@H]1c1ccc(CO)cc1"
cat = "label 0"

[[record]]
compound = "COCCOC(=O)N1C(=O)[C@@]2(c3cc(C#CCC(C(=O)OC)C(=O)OC)ccc31)[C@H](C(=O)N1CCc3cc(OC)c(OC)cc3C1)[C@H]1C(=O)O[C@H](c3ccccc3)[C@H](c3ccccc3)N1[C@@H]2c1ccc(OCCO)cc1"
cat = "label 0"

[[record]]
compound = "COC(=O)[C@@]1(Cc2ccc(OC)cc2)[C@H]2c3cc(C(=O)N(C)C)n(CCO)c3C[C@H]2CN1C(=O)c1ccccc1"
cat = "label 0"

[[record]]
compound = "CC(CO)N1C(=O)[C@@H]2[C@H]3C(=O)OCC=C[C@H]3OC23C=CCN(Cc2ccccc2)C(=O)[C@@H]13 (stereo partly drawn)"
cat = "label 0"


###

# System: XIP peptide (Xip251-270) binding
# assay: small-molecule binders of XIP peptide, primary screen, biochemical, small-molecule microarray, fluorescence 635/667 nm, 0.1 µg/mL protein (AID 1182)
# conditions: fluorescent protein binding, 635 nm, higher = more signal, called active from +8 up or from −8 down
recorded endpoint: composite z-score

[[record]]
compound = "O=C1O[C@H](c2ccccc2)[C@H](c2ccccc2)N2[C@H]1[C@@H](C(=O)Nc1nc3ccccc3s1)[C@]1(C(=O)Nc3ccccc31)[C@H]2c1ccc(OCCO)cc1"
observed_result = -0.434

[[record]]
compound = "COCCOC(=O)N1C(=O)[C@@]2(c3cc(C#CC4=CCCCC4)ccc31)[C@H](c1ccc(OCCO)cc1)N1[C@H](c3ccccc3)[C@H](c3ccccc3)OC(=O)[C@H]1[C@@H]2C(=O)NC[C@H](O)c1ccccc1"
observed_result = 0.575

[[record]]
compound = "COCCOC(=O)N1C(=O)[C@@]2(c3cc(C#CCCO)ccc31)[C@H](C(=O)Nc1nc3ccccc3s1)[C@H]1C(=O)O[C@H](c3ccccc3)[C@H](c3ccccc3)N1[C@@H]2c1ccccc1OCCO"
observed_result = 0.0261

[[record]]
compound = "COC(=O)Cn1c(C(=O)N(C)C)cc2c1C[C@H]1CN(C(=O)c3ccccc3)[C@@](Cc3ccc(F)cc3)(C(=O)OC)[C@@H]21"
observed_result = 1.69

[[record]]
compound = "[N-]=[N+]=NCc1ccccc1[C@H]1OC(c2ccc(OCCCO)cc2)=N[C@@]1(CCS(=O)(=O)c1ccccc1)C(=O)NCC(O)CO (stereo partly specified)"
observed_result = 1.2

[[record]]
compound = "COc1ccc(-c2cc3c(c(CCc4ccccc4)n2)[Si](C(C)C)(C(C)C)OC3)cn1"
observed_result = -0.406

